- TARGET_OF_ASSAY: serotoninergic 5-HT1A receptor (Homo sapiens, UniProt P08908)
- Sequence (P08908 whole entry): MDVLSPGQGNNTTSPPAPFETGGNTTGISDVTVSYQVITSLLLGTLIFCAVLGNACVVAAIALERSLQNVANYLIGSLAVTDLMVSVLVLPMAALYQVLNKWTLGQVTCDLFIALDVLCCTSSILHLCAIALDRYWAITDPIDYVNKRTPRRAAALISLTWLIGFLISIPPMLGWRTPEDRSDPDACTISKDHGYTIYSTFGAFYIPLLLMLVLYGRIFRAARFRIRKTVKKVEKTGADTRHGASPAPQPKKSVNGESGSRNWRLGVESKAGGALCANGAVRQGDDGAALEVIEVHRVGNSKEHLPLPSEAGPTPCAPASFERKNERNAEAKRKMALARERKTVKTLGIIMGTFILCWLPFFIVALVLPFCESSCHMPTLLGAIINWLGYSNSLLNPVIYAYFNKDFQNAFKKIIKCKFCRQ
- ASSAY_DETAILS: Binding assay 5-HT1A (h), [3H]8-OH-DPAT, HEK-293 cells
- Set-up: expressed in transfected cells; host or cells: HEK-293 cells
- EXPERIMENTAL_CONDITIONS: read-out: 5-HT1A
inhibition at 1 µM listing for selected compounds.

{"columns": ["ENTRY_SMILES", "UNIT_NAME", "inhibition at 1 µM"],
 "data": [
  ["O=c1[nH]c2ccc(S(=O)(=O)NCCCCN3CCN(c4noc5ccccc45)CC3)cc2o1", "%", 93],
  ["O=S(=O)(NCCCN1CCC(c2noc3cc(F)ccc23)CC1)c1cccc2scnc12", "%", 71],
  ["O=c1[nH]c2cccc(N3CCN(CCCCNS(=O)(=O)c4ccc5ccccc5c4)CC3)c2[nH]1", "%", 98],
  ["O=S(=O)(NCCCCN1CCN(c2cccc3c2OCCO3)CC1)c1ccc2cn[nH]c2c1", "%", 102],
  ["Cc1cccc(S(=O)(=O)NCCCCN2CCN(c3noc4ccccc34)CC2)c1", "%", 86],
  ["O=S(=O)(NCCCN1CCN(c2cccc3c2OCCO3)CC1)c1ccc2c(c1)CCO2", "%", 100],
  ["O=S(=O)(NCCN1CC=C(c2c[nH]c3ccc(F)cc23)CC1)c1cccc(F)c1", "%", 99],
  ["N#Cc1ccc(S(=O)(=O)NCCCCN2CCC(c3noc4cc(F)ccc34)CC2)cc1", "%", 58]
]}

----------
Known inhibition at 1 µM of a selection of molecules
- TARGET_OF_ASSAY: adrenergic α2C receptor (Homo sapiens, UniProt P18825)
- Sequence (P18825 1-462): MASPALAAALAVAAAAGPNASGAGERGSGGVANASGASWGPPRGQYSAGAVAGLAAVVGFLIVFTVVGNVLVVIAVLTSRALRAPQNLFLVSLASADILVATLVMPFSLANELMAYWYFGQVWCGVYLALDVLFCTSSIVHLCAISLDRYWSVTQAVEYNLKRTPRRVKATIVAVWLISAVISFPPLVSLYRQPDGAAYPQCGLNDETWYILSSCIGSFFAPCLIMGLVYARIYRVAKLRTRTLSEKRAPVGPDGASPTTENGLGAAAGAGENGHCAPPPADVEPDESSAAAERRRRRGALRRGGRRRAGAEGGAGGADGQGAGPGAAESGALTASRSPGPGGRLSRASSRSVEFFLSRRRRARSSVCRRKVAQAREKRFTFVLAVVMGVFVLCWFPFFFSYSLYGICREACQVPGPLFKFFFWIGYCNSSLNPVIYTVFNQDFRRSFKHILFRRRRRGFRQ
- ASSAY_DETAILS: Cellular functional assay, adrenergic α2C receptor (agonism/antagonism)
- Type: cell-based
- EXPERIMENTAL_CONDITIONS: read-out: α2C −antag. [%]

{"columns": ["MOLECULE", "inhibition at 1 µM [%]"],
 "data": [
  ["O=S(=O)(NCCCCN1CCN(c2nsc3ccccc23)CC1)c1csc2ccccc12 [Compound 240]", 35],
  ["O=c1[nH]c2ccc(S(=O)(=O)NCCCCN3CCN(c4noc5ccccc45)CC3)cc2o1 [Compound 16]", 9],
  ["O=S(=O)(NCCCCN1CCN(c2nsc3ccccc23)CC1)c1cc2ccccc2s1 [Compound 239]", 33],
  ["O=S(=O)(NCCCCN1CCC(c2noc3cc(F)ccc23)CC1)c1ccc2ccccc2c1 [Compound 18]", 28],
  ["O=S(=O)(NCCCCN1CCN(c2cccc3[nH]ccc23)CC1)c1cc2ccccc2s1 [Compound 33]", 6],
  ["Cc1c(S(=O)(=O)NCCCCN2CCN(c3noc4ccccc34)CC2)sc2ccc(F)cc12 [Compound 81]", 20],
  ["O=S(=O)(NCCCCN1CCC(c2noc3cc(F)ccc23)CC1)c1cc2ccccc2s1 [Compound 312]", 39],
  ["O=S(=O)(NCCCN1CCC(c2noc3cc(F)ccc23)CC1)c1ccc(F)c(Cl)c1 [Compound 331]", 7],
  ["O=S(=O)(NCCCCN1CCC(c2noc3cc(F)ccc23)CC1)c1csc2ccccc12 [Compound 313]", 46],
  ["O=S(=O)(NCCCCN1CCN(c2nsc3ccccc23)CC1)c1cc2ccc(Cl)cc2s1 [Compound 241]", 14],
  ["O=S(=O)(NCCCN1CCC(c2noc3cc(F)ccc23)CC1)c1ccc2cn[nH]c2c1 [Compound 352]", 16],
  ["O=S(=O)(NCCCCN1CCN(c2noc3ccccc23)CC1)c1cccc2ccccc12 [Compound 13]", 18],
  ["Cc1cccc(S(=O)(=O)NCCCN2CCC(c3noc4cc(F)ccc34)CC2)c1 [Compound 22]", 12],
  ["O=S(=O)(NCCCCN1CCN(c2noc3ccccc23)CC1)c1ccc2ccccc2c1 [Compound 14]", 12],
  ["O=S(=O)(NCCCN1CCC(c2noc3cc(F)ccc23)CC1)c1ccc2cc(Cl)ccc2c1 [Compound 98]", 16],
  ["O=S(=O)(NCCCCN1CCN(c2cccc3[nH]ccc23)CC1)c1ccc(F)cc1 [Compound 359]", 38],
  ["Cc1c(S(=O)(=O)NCCCCN2CCN(c3nsc4ccccc34)CC2)sc2ccc(F)cc12 [Compound 65]", 20],
  ["O=S(=O)(NCCCCN1CCN(c2nsc3ccccc23)CC1)c1cccc2ccccc12 [Compound 1]", 7],
  ["O=S(=O)(NCCCCN1CCC(c2noc3cc(F)ccc23)CC1)c1ccc(Br)cc1 [Compound 298]", 39],
  ["N#Cc1cccc(S(=O)(=O)NCCCN2CCC(c3noc4cc(F)ccc34)CC2)c1 [Compound 338]", 9],
  ["O=S(=O)(NCCCCN1CCN(c2cccc3[nH]ccc23)CC1)c1cccc(Cl)c1 [Compound 113]", 53],
  ["O=S(=O)(NCCCCN1CCN(c2noc3ccccc23)CC1)c1c[nH]c2ncccc12 [Compound 89]", 7],
  ["Cc1c(S(=O)(=O)NCCCN2CCC(c3noc4cc(F)ccc34)CC2)sc2ccc(F)cc12 [Compound 102]", 14],
  ["O=S(=O)(NCCCCN1CCN(c2noc3ccccc23)CC1)c1ccc(-c2ccccc2)cc1 [Compound 283]", 25],
  ["O=c1[nH]c2ccc(S(=O)(=O)NCCCN3CCN(c4nsc5ccccc45)CC3)cc2o1 [Compound 8]", 1],
  ["O=S(=O)(NCCCCN1CCN(c2cccc3[nH]ccc23)CC1)c1cccc(F)c1 [Compound 28]", 27],
  ["Cc1cccc(S(=O)(=O)NCCCN2CCN(c3nsc4ccccc34)CC2)c1 [Compound 7]", 2],
  ["O=S(=O)(NCCCCN1CCN(c2nsc3ccccc23)CC1)c1ccc2ccccc2c1 [Compound 2]", 30],
  ["O=S(=O)(NCCCCN1CCN(c2cccc3[nH]ccc23)CC1)c1ccc2cc(Cl)ccc2c1 [Compound 358]", 48],
  ["O=S(=O)(NCCCCN1CCN(c2cccc3[nH]ccc23)CC1)c1ccccc1 [Compound 27]", 31],
  ["O=S(=O)(NCCCCN1CCN(c2nsc3ccccc23)CC1)c1ccc2cc(Cl)ccc2c1 [Compound 61]", 18]
]}
